# Assay Target: Carnitine O-palmitoyltransferase 1, liver isoform (Rattus norvegicus, UniProt P32198)
# Sequence (P32198 whole entry, canonical isoform): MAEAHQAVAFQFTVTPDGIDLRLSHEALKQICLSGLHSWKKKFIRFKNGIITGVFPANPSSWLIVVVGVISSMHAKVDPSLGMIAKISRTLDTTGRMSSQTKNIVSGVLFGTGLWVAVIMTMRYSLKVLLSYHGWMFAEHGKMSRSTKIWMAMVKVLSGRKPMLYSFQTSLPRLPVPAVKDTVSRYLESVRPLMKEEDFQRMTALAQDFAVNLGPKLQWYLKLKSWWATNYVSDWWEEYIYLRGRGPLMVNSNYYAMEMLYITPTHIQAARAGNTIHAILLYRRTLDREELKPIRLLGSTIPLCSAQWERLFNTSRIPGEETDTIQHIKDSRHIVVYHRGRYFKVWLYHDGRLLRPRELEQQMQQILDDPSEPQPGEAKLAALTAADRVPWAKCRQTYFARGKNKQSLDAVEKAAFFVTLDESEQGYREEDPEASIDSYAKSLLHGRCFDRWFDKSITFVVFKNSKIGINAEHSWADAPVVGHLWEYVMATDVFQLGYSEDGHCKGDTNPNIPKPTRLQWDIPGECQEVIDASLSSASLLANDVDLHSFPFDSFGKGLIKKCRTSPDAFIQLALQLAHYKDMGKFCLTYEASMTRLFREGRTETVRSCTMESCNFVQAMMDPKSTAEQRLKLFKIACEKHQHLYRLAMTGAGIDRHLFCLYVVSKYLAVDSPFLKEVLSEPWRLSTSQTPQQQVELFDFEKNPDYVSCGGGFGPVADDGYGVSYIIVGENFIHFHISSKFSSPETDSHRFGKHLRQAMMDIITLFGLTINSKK
# Protocol Description: SUPPLEMENTARY: Inhibition of Carnitine palmitoyltransferase 1, liver isoform
For each record, write down the corresponding IC50.
Give the number; µM is assumed, so skip it.

Reported IC50 of COc1ccc(Cl)cc1Cn1cc(C(=O)O)c2ccc(C(=O)Nc3ccccc3)cc21 : 0.104

Form field IC50, entry O=C(COc1ccccc1)N1CCCC[C@@H]1c1noc(-c2ccc3[nH]nnc3c2)n1 : 0.916

# molecule COc1ccc(Cl)cc1S(=O)(=O)N1CCOc2c(F)cc(C(=O)Nc3nc(CC(=O)O)cs3)cc21 ; its IC50 = 0.0338

The molecule listed as COc1ccc(Cl)cc1S(=O)(=O)N1CC(C(=O)O)Oc2ccc(C(=O)Nc3cccc(F)c3)cc21 (centres undefined) shows IC50 equal to 0.0301

Note to self: IC50 recorded for COc1ccc(Cl)cc1S(=O)(=O)N1CC(C(=O)O)Oc2ccc(C(=O)Nc3ccccc3)cc21 (centres undefined) was 0.0259

// sample CCn1cc(Sc2cc(Cl)ccc2OC)c2cc(C(=O)Nc3ccc(C(=O)O)cc3)ccc21 , its IC50 was 0.473

Lab note: NC(=O)c1ccc(-c2csc([C@H]3CCCCN3C(=O)COc3ccccc3)n2)cc1 gave IC50 of 0.484

So for O=C(O)c1cccc(-c2noc([C@H]3CCCCN3C(=O)COc3ccccc3)n2)c1 , the logged IC50 turned out to be 1.49

Lookup result for COc1ccc(Cl)cc1S(=O)(=O)N1CCSc2ccc(C(=O)Nc3ccc(C(=O)O)c(F)c3)cc21 ; measured IC50: 0.0705
